pIC50: recorded values
Test system: HSF1 pathway (HSP72 expression) in SK-OV-3 cells
METHOD SUMMARY: Cell-based ELISA (Cellisa) assay: HSP72 induction by 17-AAG in SK-OV-3 cells
MEASUREMENT CONTEXT: Homo sapiens, compound 1 h before 17-AAG (250 nM), then 18 h, HSP72 antibody, europium counts normalised to protein, 50% inhibitory concentration, read-out: SKOV3 Cellisa
In textbook form, pIC50 equals minus log to base ten of the concentration in mol/L.

Would you please look over these solved cases?
COMPOUND	TGT	pIC50
Cc1ccc2cc(C(=O)Nc3cc(NC(=O)c4ccc5c(c4)OC(C)CO5)ccc3F)ccc2n1 (stereo not shown) [Example 4]	HSF1 pathway (HSP72 expression) in SK-OV-3 cells	5.06
Cc1ccc2cc(C(=O)Nc3cc(NC(=O)c4ccc5c(c4)OCCC5)ccc3Cl)ccc2n1 [Example 7]	HSF1 pathway (HSP72 expression) in SK-OV-3 cells	5.82
O=C(Nc1ccc(Cl)c(NC(=O)c2ccc3nc(CN4CCC4)ccc3c2)c1)c1ccc2c(c1)OCCC2 [Example 20]	HSF1 pathway (HSP72 expression) in SK-OV-3 cells	5.42

Returns the measured pIC50 for the input compound. Input: CCN1CCN(Cc2ccc3cc(C(=O)Nc4cc(NC(=O)c5ccc6c(c5)OCC6)ccc4Cl)ccc3n2)CC1 [Example 18] 6.19
